The values you see were collected from ChEMBL document CHEMBL1147642.

Tested on: Streptococcus agalactiae
measurement.protocol: Minimum inhibitory activity against Streptococcus agalactiae CMX 508
Assay type: functional
quantity.kind: MIC (µg/mL)

CC[C@H]1OC(=O)[C@H](C)[C@@H](OC(=O)N2C(=O)OC[C@@H]2C)[C@H](C)[C@@H](OC2O[C@H](C)C[C@H](N(C)C3CCCCC3)[C@H]2O)[C@@](C)(OC)C[C@@H](C)C(=O)[C@H](C)[C@H]2N(CCc3ccc(Cl)c(Cl)c3)C(=O)O[C@]12C (stereo partly drawn)    6.2

P = CC[C@H]1OC(=O)[C@H](C)[C@@H](OC(=O)N2C(=O)OC[C@@H]2C)[C@H](C)[C@@H](O[C@@H]2O[C@H](C)C[C@H](N(C)CC3CC3)[C@H]2O)[C@@](C)(OC)C[C@@H](C)C(=O)[C@H](C)[C@H]2N(CCc3ccc(Cl)c(Cl)c3)C(=O)O[C@]12C
Q = CC[C@H]1OC(=O)[C@H](C)[C@@H](O[C@H]2C[C@@](C)(OC)[C@@H](O)[C@H](C)O2)[C@H](C)[C@@H](O[C@@H]2O[C@H](C)C[C@H](N(C)C)[C@H]2O)[C@](C)(O)C[C@@H](C)C(=O)[C@H](C)[C@@H](O)[C@]1(C)O [ERYTHROMYCIN]
R = CC[C@H]1OC(=O)[C@H](C)[C@@H](O)[C@H](C)[C@@H](OC2O[C@H](C)C[C@H](N(C)C)[C@H]2O)[C@@](C)(OC)C[C@@H](C)C(=O)[C@H](C)[C@H]2N(CCc3ccc(Cl)cc3)C(=O)O[C@]12C (stereo partly drawn)
In this exercise, place the 3 compounds in ascending sequence of their recorded MIC. Your reply should list the labels following the order given in the request.
R, Q, P
(R: 0.02 µg/mL, Q: 0.05 µg/mL, P: 0.78 µg/mL)

* * *

System: Streptococcus agalactiae
measurement.protocol: Minimum inhibitory activity against Streptococcus agalactiae CMX 508
Format: functional
quantity.kind: MIC (µg/mL)
Note: unit µg/mL is implicit; provide only the numeric part.

The following molecules have reported results that may help.
CC[C@H]1OC(=O)[C@H](C)[C@@H](OC(=O)N2C(=O)OC[C@@H]2C)[C@H](C)[C@@H](OC2O[C@H](C)C[C@H](N(C)CC3CC3)[C@H]2O)[C@@](C)(OC)C[C@@H](C)C(=O)[C@H](C)[C@H]2N(CCc3ccc(Cl)cc3)C(=O)O[C@]12C (some centres undefined)    1.56
CC[C@H]1OC(=O)[C@H](C)[C@@H](OC(=O)N2C(=O)OC[C@@H]2C)[C@H](C)[C@@H](OC2O[C@H](C)C[C@H](N(CC3CC3)CC3CC3)[C@H]2O)[C@@](C)(OC)C[C@@H](C)C(=O)[C@H](C)[C@H]2N(CCc3ccc(Cl)c(Cl)c3)C(=O)O[C@]12C (some centres undefined)    100
CC[C@H]1OC(=O)[C@H](C)[C@@H](OC2C[C@@](C)(OC)[C@@H](O)[C@H](C)O2)[C@H](C)[C@@H](OC2O[C@H](C)C[C@H](N(C)C(C)C)[C@H]2O)[C@@](C)(OC)C[C@@H](C)C(=O)[C@H](C)[C@H]2N(CCc3ccc(Cl)cc3)C(=O)O[C@]12C (some centres undefined)    0.02

Could you now look at the following molecule, please?
Look at this molecule and give its reported MIC. CC[C@H]1OC(=O)[C@H](C)[C@@H](OC(=O)N2C(=O)OC[C@@H]2C)[C@H](C)[C@@H](OC2O[C@H](C)C[C@H](N(C)C3CCCC3)[C@H]2O)[C@@](C)(OC)C[C@@H](C)C(=O)[C@H](C)[C@H]2N(CCc3ccc(Cl)cc3)C(=O)O[C@]12C (some centres undefined)
3.1
